Attribution: patent US20120232070A1

# TARGET_UNDER_TEST: hNurr1_RXRαFL (NURR1/RXRα heterodimer) (Homo sapiens, UniProt P19793+P43354)
# Sequence (P19793 whole entry, the tested form may be a part): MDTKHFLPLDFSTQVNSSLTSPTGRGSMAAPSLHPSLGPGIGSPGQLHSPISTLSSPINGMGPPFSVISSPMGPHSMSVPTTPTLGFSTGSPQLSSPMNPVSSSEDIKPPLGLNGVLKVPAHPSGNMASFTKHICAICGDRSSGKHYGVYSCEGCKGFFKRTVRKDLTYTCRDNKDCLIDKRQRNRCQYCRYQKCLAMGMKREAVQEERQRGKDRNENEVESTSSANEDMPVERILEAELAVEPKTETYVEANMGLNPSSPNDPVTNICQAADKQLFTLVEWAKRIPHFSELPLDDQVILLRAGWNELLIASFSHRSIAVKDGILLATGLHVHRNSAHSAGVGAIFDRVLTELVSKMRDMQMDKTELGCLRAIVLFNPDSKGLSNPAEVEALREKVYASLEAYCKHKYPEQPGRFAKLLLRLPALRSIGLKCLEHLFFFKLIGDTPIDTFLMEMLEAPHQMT
# Sequence (P43354 328-598): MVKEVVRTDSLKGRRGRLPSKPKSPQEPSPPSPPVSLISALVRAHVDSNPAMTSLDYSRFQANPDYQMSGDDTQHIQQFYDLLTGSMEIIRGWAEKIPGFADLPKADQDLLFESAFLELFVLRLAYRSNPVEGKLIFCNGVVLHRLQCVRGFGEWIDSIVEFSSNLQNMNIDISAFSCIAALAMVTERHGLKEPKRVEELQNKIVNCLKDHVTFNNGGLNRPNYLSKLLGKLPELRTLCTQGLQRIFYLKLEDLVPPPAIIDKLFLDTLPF
# TEST_METHOD_NOTES: Transactivation assay in Cos-7 cells, NURR-1-Gal4 / RXRα, luciferase reporter
# Format: cell-based
# RUN_CONDITIONS: efficacy in % relative to the reference XCT0135908 at 2·10^−5 M (=100%)
class 1 means recorded hNurr1_RXRαFL Eff (%) is 80% or above; class 0 means it is below 80%.

Evaluate CC(C)c1cccc(S(=O)(=O)n2c(Cc3ccc(C(=O)O)cc3)cc3cc(C(F)(F)F)ccc32)c1 [Example 114] : hNurr1_RXRαFL Eff (%) at minimum 80%?
class 1

Evaluate CC(C)c1cccc(S(=O)(=O)n2c(Cc3ccc(C(=O)O)cc3)cc3cc(C(F)(F)F)ccc32)c1 [Example 32] : hNurr1_RXRαFL Eff (%) at minimum 80%?
class 0

Evaluate CC(C)(C)c1cccc(S(=O)(=O)n2c(Cc3cc(C(=O)O)c(F)cc3Cl)cc3cc(C(F)(F)F)ccc32)c1 : hNurr1_RXRαFL Eff (%) at minimum 80%?
class 1

Evaluate CC(C)c1cccc(S(=O)(=O)n2c(Cc3ccc(C(=O)O)cc3)cc3cc(N4CCCC4)ccc32)c1 : hNurr1_RXRαFL Eff (%) at minimum 80%?
class 0

Evaluate COC(=O)c1ccc(Cc2cc3cc(Cl)ccc3n2S(=O)(=O)c2ccc3c(c2)C(C)(C)CO3)cc1 : hNurr1_RXRαFL Eff (%) at minimum 80%?
class 1

Evaluate CC(C)(C)c1cccc(S(=O)(=O)n2c(Cc3cc(F)cc(C(=O)O)c3)cc3cc(C(F)(F)F)ccc32)c1 : hNurr1_RXRαFL Eff (%) at minimum 80%?
class 1

* * *

# TARGET_UNDER_TEST: hNurr1_RXRγFL (NURR1/RXRγ heterodimer) (Homo sapiens, UniProt P43354+P48443)
# Sequence (P48443 whole entry, one chain of several, the tested form may be a part): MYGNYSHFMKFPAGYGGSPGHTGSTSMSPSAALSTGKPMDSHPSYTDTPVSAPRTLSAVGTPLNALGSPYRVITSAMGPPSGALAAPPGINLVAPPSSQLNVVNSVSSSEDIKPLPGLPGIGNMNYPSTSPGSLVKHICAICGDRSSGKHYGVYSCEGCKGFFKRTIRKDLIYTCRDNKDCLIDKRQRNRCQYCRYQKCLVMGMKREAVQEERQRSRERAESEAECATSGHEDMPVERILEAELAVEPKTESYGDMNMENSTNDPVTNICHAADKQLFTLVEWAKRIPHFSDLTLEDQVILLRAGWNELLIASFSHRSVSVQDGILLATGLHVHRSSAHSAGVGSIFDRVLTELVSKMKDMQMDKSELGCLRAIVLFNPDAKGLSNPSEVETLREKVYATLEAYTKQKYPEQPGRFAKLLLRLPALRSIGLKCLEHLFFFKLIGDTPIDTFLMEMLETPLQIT
# TEST_METHOD_NOTES: Transactivation assay in Cos-7 cells, NURR-1-Gal4 / RXRγ, luciferase reporter
# Format: cell-based
# RUN_CONDITIONS: COS-7, read-out: hNurr1_RXRγFL Eff (%), efficacy in % relative to the reference XCT0135908 at 2·10^−5 M (=100%)
# Protocol: First, the capacity of the compounds according to the invention for acting as an activator of the heterodimers formed by the NURR-1 nuclear receptor and the RXR nuclear receptors was measured by an in vitro assay. A transactivation assay was used as a primary screening assay. […] After 24 hours, the culture medium was changed. […] After overnight incubation, luciferase expression was measured after addition of “SteadyGlo” according to the manufacturer's instructions (Promega). […]
READOUT_TYPE: Emax

Answer with the recorded Emax of O=C(O)c1ccc(Cc2cc3cc(Cl)ccc3n2S(=O)(=O)c2ccc(Cl)cc2)cc1 [Example 160] only.
55%

Answer with the recorded Emax of O=C(O)c1ccc(Cc2cc3cc(Cl)ccc3n2S(=O)(=O)c2ccc(-c3ccc(F)cc3)cc2)cc1 [Example 179] only.
26%

Answer with the recorded Emax of O=C(O)c1ccc(Cc2cc3cc(C(F)(F)F)ccc3n2S(=O)(=O)c2ccc(F)c(Cl)c2)cc1 [Example 15] only.
54%

Answer with the recorded Emax of CS(=O)(=O)n1c(Cc2ccc(C(=O)O)cc2)cc2cc(Cl)ccc21 [Example 181] only.
152%

Answer with the recorded Emax of CCc1ccc(S(=O)(=O)n2c(Cc3ccc(C(=O)O)cc3)cc3cc(C(F)(F)F)ccc32)cc1 [Example 133] only.
38%

Answer with the recorded Emax of Cc1ccc(S(=O)(=O)n2c(Cc3ccc(C(=O)O)cc3)cc3cc(Cl)ccc32)cc1 [Example 171] only.
31%

Answer with the recorded Emax of O=C(O)c1ccc(Cc2cc3cc(Cl)ccc3n2S(=O)(=O)c2ccc3ccccc3c2)cc1 [Example 163] only.
34%

Answer with the recorded Emax of O=C(O)c1ccc(Cc2cc3cc(C(F)(F)F)ccc3n2S(=O)(=O)c2ccc(Cl)c(OC(F)F)c2)cc1 [Example 147] only.
30%

* * *

# TARGET_UNDER_TEST: hNurr1_RXRγFL (NURR1/RXRγ heterodimer) (Homo sapiens, UniProt P43354+P48443)
# TEST_METHOD_NOTES: Transactivation assay in Cos-7 cells, NURR-1-Gal4 / RXRγ, luciferase reporter
# Format: cell-based
# RUN_CONDITIONS: COS-7, read-out: hNurr1_RXRγFL Eff (%), efficacy in % relative to the reference XCT0135908 at 2·10^−5 M (=100%)
T means recorded Emax is 60% or above; F means it is below 60%.

Evaluate CC(C)(C)c1cccc(S(=O)(=O)n2c(Cc3ccc(C(=O)NS(=O)(=O)c4ccccc4)cc3)cc3cc(C(F)(F)F)ccc32)c1 [Example 229] : Emax at minimum 60%?
T

Evaluate CC1(C)CCc2cc(S(=O)(=O)n3c(Cc4ccc(C(=O)O)cc4)cc4cc(C(F)(F)F)ccc43)ccc2O1 [Example 132] : Emax at minimum 60%?
F

Evaluate CC(C)c1cccc(S(=O)(=O)n2c(Cc3ccc(C(=O)O)cc3)cc3cc(Cl)ccc32)c1 [Example 51] : Emax at minimum 60%?
T

Evaluate CC(C)CCc1ccc(S(=O)(=O)n2c(Cc3ccc(C(=O)O)cc3)cc3cc(C(F)(F)F)ccc32)cc1 [Example 128] : Emax at minimum 60%?
F

Evaluate O=C(O)c1ccc(Cc2cc3cc(C(F)(F)F)ccc3n2S(=O)(=O)c2ccc(OC(F)(F)F)cc2)cc1 [Example 142] : Emax at minimum 60%?
F

Evaluate O=C(O)c1ccc(Cc2cc3cc(C(F)(F)F)ccc3n2S(=O)(=O)c2ccc(OC(F)F)c(Cl)c2)cc1 [Example 124] : Emax at minimum 60%?
F

Evaluate O=C(O)c1ccc(Cc2cc3cc(C(F)(F)F)ccc3n2S(=O)(=O)c2ccc3c(c2)OCCO3)cc1 [Example 22] : Emax at minimum 60%?
F

Evaluate O=C(O)c1ccc(Cc2cc3cc(Cl)ccc3n2S(=O)(=O)c2cc3ccccc3o2)cc1 [Example 177] : Emax at minimum 60%?
F

Evaluate CC(C)c1ccc(S(=O)(=O)n2c(Cc3ccc(C(=O)O)s3)cc3cc(C(F)(F)F)ccc32)cc1 [Example 71] : Emax at minimum 60%?
T

Evaluate CC(C)(C)c1cccc(S(=O)(=O)n2c(Cc3ccc(F)c(C(=O)O)c3)cc3cc(C(F)(F)F)ccc32)c1 [Example 210] : Emax at minimum 60%?
T

Evaluate O=C(O)c1ccc(Cc2cc3cc(Cl)ccc3n2S(=O)(=O)c2cccc(C(F)(F)F)c2)cc1 [Example 28] : Emax at minimum 60%?
T

Evaluate CN1CCOc2ccc(S(=O)(=O)n3c(Cc4ccc(C(=O)O)s4)cc4cc(C(F)(F)F)ccc43)cc21 [Example 73] : Emax at minimum 60%?
T

Evaluate COc1ccc(S(=O)(=O)n2c(Cc3ccc(C(=O)O)cc3)cc3cc(C(F)(F)F)ccc32)cc1 [Example 138] : Emax at minimum 60%?
F

Evaluate CCCOc1ccc(S(=O)(=O)n2c(Cc3ccc(C(=O)O)cc3)cc3cc(C(F)(F)F)ccc32)cc1 [Example 123] : Emax at minimum 60%?
F

Evaluate Cc1cccc(S(=O)(=O)n2c(Cc3ccc(C(=O)O)cc3)cc3cc(C(F)(F)F)ccc32)c1 [Example 141] : Emax at minimum 60%?
F

Evaluate CC(C)(C)c1cccc(S(=O)(=O)n2c(Cc3ccc(C(=O)O)c(F)c3)cc3cc(C(F)(F)F)ccc32)c1 [Example 10] : Emax at minimum 60%?
F

* * *

# TARGET_UNDER_TEST: hNurr1_RXRαFL (NURR1/RXRα heterodimer) (Homo sapiens, UniProt P19793+P43354)
# TEST_METHOD_NOTES: Transactivation assay in Cos-7 cells, NURR-1-Gal4 / RXRα, luciferase reporter
# Type: cell-based
# RUN_CONDITIONS: COS-7, read-out: hNurr1_RXRαFL Eff (%), efficacy in % relative to the reference XCT0135908 at 2·10^−5 M (=100%)
# Procedure: First, the capacity of the compounds according to the invention for acting as an activator of the heterodimers formed by the NURR-1 nuclear receptor and the RXR nuclear receptors was measured by an in vitro assay. A transactivation assay was used as a primary screening assay. […] After 24 hours, the culture medium was changed. […] After overnight incubation, luciferase expression was measured after addition of “SteadyGlo” according to the manufacturer's instructions (Promega). […]
satisfied means recorded Emax is 60% or above; not satisfied means it is below 60%.

Evaluate COc1ccc(C(=O)O)cc1Cc1cc2cc(C(F)(F)F)ccc2n1S(=O)(=O)c1cccc(C(C)(C)C)c1 [Example 208] : Emax at minimum 60%?
not satisfied

Evaluate CC(C)(C)c1cccc(S(=O)(=O)n2c(Cc3cccc(C(=O)O)c3)cc3cc(C(F)(F)F)ccc32)c1 [Example 8] : Emax at minimum 60%?
satisfied

Evaluate CC(C)(C)c1cccc(S(=O)(=O)n2c(Cc3ccc(-c4n[nH]c(=O)o4)cc3)cc3cc(C(F)(F)F)ccc32)c1 [Example 226] : Emax at minimum 60%?
satisfied

Evaluate CC(C)(C)c1cccc(S(=O)(=O)n2c(Cc3ccc(C(=O)O)cc3Cl)cc3cc(C(F)(F)F)ccc32)c1 [Example 205] : Emax at minimum 60%?
satisfied

Evaluate Cc1cc(C)n(-c2ccc(S(=O)(=O)n3c(Cc4ccc(C(=O)O)cc4)cc4cc(C(F)(F)F)ccc43)cc2)n1 [Example 131] : Emax at minimum 60%?
not satisfied

Evaluate O=C(O)c1ccc(Cc2cc3cc(C(F)(F)F)ccc3n2S(=O)(=O)c2ccc(C(=O)N3CCOCC3)cc2)cc1 [Example 129] : Emax at minimum 60%?
not satisfied

Evaluate CCC(C)(C)c1ccc(S(=O)(=O)n2c(Cc3ccc(C(=O)O)cc3)cc3cc(Cl)ccc32)cc1 [Example 168] : Emax at minimum 60%?
not satisfied

Evaluate O=C(O)c1ccc(Cc2cc3cc(Cl)ccc3n2S(=O)(=O)c2ccc3c(c2)OCO3)cc1 [Example 174] : Emax at minimum 60%?
not satisfied

Evaluate CCc1ccc(S(=O)(=O)n2c(Cc3ccc(C(=O)O)cc3)cc3cc(C(F)(F)F)ccc32)cc1 [Example 133] : Emax at minimum 60%?
not satisfied

Evaluate CN1CCOc2ccc(S(=O)(=O)n3c(Cc4ccc(C(=O)O)cc4)cc4cc(C(F)(F)F)ccc43)cc21 [Example 45] : Emax at minimum 60%?
satisfied

Evaluate O=C(O)c1ccc(Cc2cc3cc(C(F)(F)F)ccc3n2S(=O)(=O)c2ccc(Cl)c(OC(F)F)c2)cc1 [Example 147] : Emax at minimum 60%?
not satisfied

Evaluate COC(=O)c1ccc(Cc2c(F)c3cc(C(F)(F)F)ccc3n2S(=O)(=O)c2cccc(C(C)(C)C)c2)cc1 [Example 148] : Emax at minimum 60%?
satisfied
